Listing of recorded TGI by entry.
- System: SNB-78 CNS
- TEST_NAME: NCI tumour cell line growth inhibition, 48 h
MEASUREMENT_NAME: TGI

[[record]]
compound = "CCN(CC)C(=O)COc1ccc(Br)cc1Br"
recorded_result = "> 100 µM"

[[record]]
compound = "CC(C)OP(=O)(OC(C)C)C(=Nc1ccccc1)NNc1ccc([N+](=O)[O-])cc1"
recorded_result = "43.1 µM"

[[record]]
compound = "Cc1ccccc1C(C#N)C(=O)C(=O)Nc1cccc(Cl)c1 (centres undefined)"
recorded_result = "> 100 µM"

[[record]]
compound = "N.N.NCCCCN.O=C([O-])C1(C(=O)[O-])CCC1.O=C([O-])C1(C(=O)[O-])CCC1.[Pt+4].[Pt+4]"
recorded_result = "> 100 µM"

[[record]]
compound = "CC#C[I+]c1ccccc1"
recorded_result = "54.5 µM"

[[record]]
compound = "CN(C)CC1(C)CC/C(=C\\c2ccccc2)C1=O (centres undefined)"
recorded_result = "> 100 µM"

[[record]]
compound = "Cc1cc(Cl)ccc1N=C1NC(=O)C(CC(=O)Nc2ccc(Cl)cc2Cl)S1 (centres undefined)"
recorded_result = "> 100 µM"

[[record]]
compound = "N#Cc1cc([N+](=O)[O-])ccc1NC(=O)C(=O)C(C(=O)/C=C/c1ccccc1)C1OC(=O)c2ccccc21 (centres undefined)"
recorded_result = "> 100 µM"

[[record]]
compound = "CC(=O)O[C@H]1C(=O)[C@@]2(C)C(C(OC(=O)c3ccccc3)[C@]3(O)CC(OC(=O)C(O)C(NC(=O)c4ccc(C)cc4)c4ccccc4)C(C)=C1C3(C)C)[C@]1(OC(C)=O)CO[C@@H]1C[C@@H]2O (some centres undefined)"
recorded_result = "> 25 µM"


* * *

- Test system: SR leukemia
- TEST_NAME: NCI tumour cell line growth inhibition, 48 h
MEASUREMENT_NAME: TGI

[[record]]
molecule = "O=[N+]([O-])c1cc(-[n+]2cc([O-])on2)ccc1F"
recorded_result = "> 100 µM"

[[record]]
molecule = "CN(C)CCCc1c[nH]c2ccccc12"
recorded_result = "> 100 µM"

[[record]]
molecule = "COc1ccc(N2C(=O)C3c4[nH]c5cccc(C)c5c4C4CCC(C(C)(C)C)CC4C3C2=O)cc1 (stereo not given)"
recorded_result = "> 10 µM"

[[record]]
molecule = "O=C(/C=C\\c1ccc(Cl)cc1Cl)c1cccs1"
recorded_result = "> 100 µM"

[[record]]
molecule = "C=C1C(=O)O[C@H]2[C@H]1CC/C(COC(=O)NCc1c[nH]c3ccc(Cl)cc13)=C\\CC[C@@]1(C)O[C@@H]21"
recorded_result = "3.88 µM"


* * *

- System: MDA-MB-231 breast
- TEST_NAME: NCI tumour cell line growth inhibition, 48 h
Listing of recorded TGI by entry.
MEASUREMENT_NAME: TGI (µM)

[[record]]
compound = "CCCc1nc2c(C)cc(-c3nc4ccccc4n3C)cc2n1Cc1ccc(-c2ccccc2C(=O)O)cc1"
sign_qualifier = ">"
recorded_result = 100

[[record]]
compound = "CC(=O)N=c1ccc2nc3c(cc(N)c4ccccc43)oc-2c1"
sign_qualifier = "="
recorded_result = 3.92

[[record]]
compound = "COc1ccc2c(c1)CCC1C2CC[C@]2(C)/C(=N/OC(=O)Cc3ccccc3)CCC12 (stereo partly specified)"
sign_qualifier = "="
recorded_result = 38.6

[[record]]
compound = "CCN(CC)CCCNc1nc2ccccc2c2[nH]c3ccc(OC)cc3c12"
sign_qualifier = "="
recorded_result = 3.29

[[record]]
compound = "CC(C)n1c2c([n+](C)c1/C=C/c1ccccc1)C(=O)c1ccccc1C2=O"
sign_qualifier = "="
recorded_result = 0.884

[[record]]
compound = "COc1ccc2[nH]c3c(c2c1)COc1ccccc1C3=O"
sign_qualifier = ">"
recorded_result = 100

[[record]]
compound = "C[C@@]12CCC(=O)C=C1CC[C@H]1C2=CC[C@]2(C)C1CC[C@@]2(C)O (stereo partly specified)"
sign_qualifier = ">"
recorded_result = 100

[[record]]
compound = "O=c1ccn2n1CCCCC2"
sign_qualifier = ">"
recorded_result = 100

[[record]]
compound = "CC(=O)N[C@H]1CCCC[C@@H]1OC(C)=O"
sign_qualifier = ">"
recorded_result = 100

[[record]]
compound = "CCCCCCCCCCCCCCCCCCOCC(CO[P+](=O)O)OCCCCCCCCCCCCCCCCCC (stereo unspecified)"
sign_qualifier = ">"
recorded_result = 50

[[record]]
compound = "NS(=O)(=O)c1ccc(N2N=C3c4ccccc4CC3C2c2ccc(Cl)cc2)cc1 (stereo unspecified)"
sign_qualifier = "="
recorded_result = 8.24

[[record]]
compound = "C=C(C)[C@@H]1CC[C@]2(C)[C@H](CC[C@@H]3[C@H]4[C@H]5OC[C@@]4(CCC5(C)C)CC[C@]32C)[C@@]1(C)CCCN"
sign_qualifier = "="
recorded_result = 3.54

[[record]]
compound = "CN(C)c1nc(NN)c2c(-c3ccccc3)c(-c3ccccc3)oc2n1"
sign_qualifier = ">"
recorded_result = 100

[[record]]
compound = "Cc1n[nH]c(=O)n1/N=C/c1c[nH]c2ccccc12"
sign_qualifier = ">"
recorded_result = 100

[[record]]
compound = "O=C(O)c1ccc(C(c2c(O)c3ccccc3oc2=O)c2c(O)c3ccccc3oc2=O)cc1"
sign_qualifier = ">"
recorded_result = 100

[[record]]
compound = "COc1ccc2c(c1)CC[C@@H]1[C@@H]2CC[C@]2(C)C(c3ccco3)=C(C=O)C[C@@H]12"
sign_qualifier = "="
recorded_result = 30.7

[[record]]
compound = "O=c1[nH]nc(Cc2ccc(Cl)cc2)n1/N=C\\CC/C=N\\n1c(Cc2ccc(Cl)cc2)n[nH]c1=O"
sign_qualifier = ">"
recorded_result = 58.4

[[record]]
compound = "CC(C)(C)C(=O)C(C(c1ccccc1)N1CCOCC1)N1CCOCC1 (stereo unspecified)"
sign_qualifier = ">"
recorded_result = 100

[[record]]
compound = "CCC(C)C(NC(=O)C1CCCN1C(=O)C(NC(=O)C(C)N)C(C)C)C(N)=O (stereo unspecified)"
sign_qualifier = ">"
recorded_result = 100

[[record]]
compound = "Cn1c2ccccc2c(=NNc2ccccc2C(=O)O)c2ccccc21"
sign_qualifier = "="
recorded_result = 59.1

[[record]]
compound = "C[C@@H]1C=C2C(=O)O[C@@H]3CC[C@H](C1)[C@]23O"
sign_qualifier = "="
recorded_result = 17.4

[[record]]
compound = "Nc1c(C(=O)Nc2ccccc2Cl)sc2nc3c(cc12)CCCCCC3"
sign_qualifier = "="
recorded_result = 14.1

[[record]]
compound = "CCCCCCCC[N+](C)(CCCCCCCC)CCCCCCCC"
sign_qualifier = "="
recorded_result = 1.26

[[record]]
compound = "COc1cccc(N2C(=O)CSC2c2cc(OC)c(OC)c(OC)c2)c1 (stereo unspecified)"
sign_qualifier = ">"
recorded_result = 100

[[record]]
compound = "N=c1ccc2c(c1)[nH]c1c3ccccc3[nH]c3cccc2c31"
sign_qualifier = "="
recorded_result = 2.69

[[record]]
compound = "CN(CCCCN(C)CCc1ccc(Cl)c(Cl)c1)CCCCN1CCCC1"
sign_qualifier = "="
recorded_result = 2.25

[[record]]
compound = "FC(F)(Sc1ccccc1)c1nc2ccccc2o1"
sign_qualifier = ">"
recorded_result = 100

[[record]]
compound = "Cc1ccc(-c2csc(=Nc3c(C)n(C)n(-c4ccccc4)c3=O)n2CCO)cc1"
sign_qualifier = ">"
recorded_result = 100

[[record]]
compound = "CCOC(=O)CCC(NC(=O)c1ccc(Nc2nc3ccccc3nc2-c2cccs2)cc1)C(=O)OCC (stereo unspecified)"
sign_qualifier = ">"
recorded_result = 100

[[record]]
compound = "Cc1cccc(-c2cc(=S)c3cc(N4CCCC4)ccc3[nH]2)c1"
sign_qualifier = ">"
recorded_result = 100

[[record]]
compound = "Cc1[nH]c(=O)[nH]c(=O)c1CO"
sign_qualifier = ">"
recorded_result = 100

